Data credit: PubChem BioAssay AID179

# Test system: CEM cells HIV-1 protection, formazan growth assay
# Assay Text: NCI AIDS Antiviral Assay
# Conditions Used: measured here: growth of uninfected CEM cells
pIC50: −log10 of the molar value.
I'd be grateful if you could share measured pIC50 for these entries.

Dear colleague, could you send me pIC50 for each of the items below? Thanks.
1. COC(=O)C1CCC(=O)N1CN(C(C)=O)c1ccccc1Cl (configuration not stated)
2. C=CCOCn1cc(C)c(=O)[nH]c1=O
3. COc1cccc2c1OC1(N3CCOCC3)CCCCC1C2C[N+](=O)[O-] (configuration not stated)
4. COc1cc(/C=c2\sc3n(c2=O)C(c2ccc(Cl)cc2)C2=C(CCCC2C)N=3)cc(OC)c1OC (configuration not stated)
5. Cc1cc(O)c(/C=N/C(N)=S)c(=O)o1
6. COc1cccc2c1C1(O)C2CCCC12OCCCO2 (configuration not stated)

OUT:
1: < 3.70; 2: < 3.70; 3: < 3.70; 4: < 3.70; 5: < 3.70; 6: < 3.70

Go through the items and report each one's pIC50.
1. Cc1cc(C)c(NS(=O)c2ccc(Cl)cc2)c(C)c1 (configuration not stated)
2. Cn1c(=O)c2[nH]c(N=Nc3c(N)n[nH]c3N)nc2n(C)c1=O
3. O=c1[nH]c2c(c(=O)[nH]1)SC(c1ccccc1)C2 (configuration not stated)
4. CCOC(=O)c1cnc2c(ccc3[nH]n(C)nc32)c1=O

OUT:
1. < 4.47
2. < 3.70
3. < 3.70
4. < 3.60

For each listed entry, give its pIC50.
1. CCOc1ccc(/C=N/[N+](C)(C)C)cc1OCC
2. c1ccc2c(c1)CCCc1cc3ccccc3nc1-2
3. COc1ccc2c(c1)NC(=O)C(O)(Cc1ccccc1)C2=O (configuration not stated)
4. C/C(=C\CNc1ncnc2c1ncn2CCC#N)CO
5. O=c1[nH]nc(Cc2ccc(Cl)cc2)n1O
6. CC1CCc2c(sc3ncnc(N/N=C/c4ccc(Cl)c(Cl)c4)c23)C1 (configuration not stated)

OUT:
["< 3.70", "< 4.26", "< 3.70", "< 3.70", "< 3.70", "< 4.59"]
